Assayed system: T1, human MHC class II DR protein (DRA*0101/DRB1*0401), purified from PRIESS cells (human, UniProt P01903 26-254; P01911 30-266, limits assumed)
T1 construct: mature; also called HLA-DR protein; MHCII
T1 MHC II alpha: not shown
T1 MHC II beta: not shown
Test method notes: SPR (BIAcore), MHCII on CM5 chip
Observed property: pKd
Note on pKd: it is the negative log10 of concentration, concentration in mol/L.

Incoming: Sample MS-GPC-8-27-7 Fab (Fab, V domains shown, Fab: VH-CH1 with FLAG tag and STREP tag II, VL-CL; VH residue 1 is Q in Fab) VH: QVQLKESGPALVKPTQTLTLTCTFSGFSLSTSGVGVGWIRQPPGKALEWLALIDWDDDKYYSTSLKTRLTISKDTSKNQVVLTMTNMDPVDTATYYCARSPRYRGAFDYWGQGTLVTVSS VL: DIVLTQPPSVSGAPGQRVTISCSGSESNIGNNYVGWYQQLPGTAPKLLIYDNNQRPSGVPDRFSGSKSGTSASLAITGLQSEDEADYYCQSYDMNVHVFGGGTKLTVLG — what was its pKd?
Outgoing: 8.48
